System: HOP-92
testMethodNotes: NCI tumour cell line growth inhibition, 48 h
Calls of active or inactive are those of the source. Rule as the data show it: active = GI50 up to about 1.1 µM and inactive = higher.
// allowed return values: active, inactive

Consider the worked cases shown below.
- CCCc1cn2c(/C=N/NC(=N)N)c(-c3cccc([N+](=O)[O-])c3)nc2s1: inactive
- COc1cc(C2c3cc4c(cc3[C@@H](Nc3ccc(C(=O)O)cc3)C3COC(=O)[C@H]23)OCO4)cc(OC)c1O (stereo partly specified): inactive

Just curious, what result did CC(C)(c1ccc(C=O)o1)c1ccc(C(C)(C)c2ccc(C=O)o2)o1 get here?
inactive

And then Nc1cccc2c1C1=NNC(=O)CC1C2 (stereo unspecified) , what is it?
inactive

And then C(/Cc1ccc2c(c1)OCO2)=N\N=C1NCCN1 , what is it?
inactive

And then O=C([O-])C(O)C(O)C(=O)O.[K+] (stereo unspecified) [POTASSIUM HYDROGENTARTRATE] , what is it?
inactive

And then CC1CC(c2cccc3c2OCO3)=Nc2ccccc2S1 (stereo unspecified) , what is it?
inactive

And then NC(=O)NN=C1Cc2ccccc2C1 , what is it?
inactive

And then C[C@]12CC[C@@H]3c4ccc(O)cc4CC[C@H]3[C@@H]1C/C(=C\c1ccc(C#N)cc1)C2=O , what is it?
inactive

And then N#CCc1ccc(/C(C#N)=C2/OC(=N)C(c3ccc(CC#N)cc3)C2=O)cc1 (stereo unspecified) , what is it?
inactive

And then CCN(CCCl)c1cc(CN(C)C)cc(NC(=O)c2ccc(C(=O)Nc3ccccc3)cc2)c1 , what is it?
active
